- Assayed target: serotonin 5-HT2C receptor (Homo sapiens, UniProt P28335, I156V/I160V/N158S)
- Sequence (P28335 33-458 I156V/N158S/I160V limits assumed): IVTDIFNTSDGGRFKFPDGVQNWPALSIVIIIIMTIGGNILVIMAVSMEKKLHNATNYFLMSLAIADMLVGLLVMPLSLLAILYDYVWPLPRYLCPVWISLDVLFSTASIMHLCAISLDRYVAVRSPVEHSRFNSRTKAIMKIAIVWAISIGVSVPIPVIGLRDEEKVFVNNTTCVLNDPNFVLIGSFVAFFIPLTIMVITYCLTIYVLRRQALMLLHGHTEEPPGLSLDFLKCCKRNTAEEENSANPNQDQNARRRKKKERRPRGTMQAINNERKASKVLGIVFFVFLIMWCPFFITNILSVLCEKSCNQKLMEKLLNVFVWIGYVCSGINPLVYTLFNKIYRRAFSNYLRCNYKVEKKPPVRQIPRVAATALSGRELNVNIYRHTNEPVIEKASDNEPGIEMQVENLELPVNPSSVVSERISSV
- Assay overview: cell-based
- Condition: CHO, read-out: ratio to maximum response by 5-HT (1 μM)
Structures can show the parent of a compound that is named as a salt.
Measurement name: activation at 1 µM (%)
State the answer as a number, implicitly in %.

Reference set, count: 4
Compound: CC(C)N(C)c1ccc2c(c1)OCCNC2 [Example 4, dihydrochloride]
activation at 1 µM, %: 100

Compound: FC1(F)CCN(c2cccc3c2OCCNC3)C1 [Example 58]
activation at 1 µM, %: 95.5

Compound: Clc1ccccc1-c1cccc2c1OCCNC2 [Example 10, hydrochloride]
activation at 1 µM, %: 94

Compound: C1=C(c2cccc3c2OCCNC3)CCC1 [Example 26, hydrochloride]
activation at 1 µM, %: 101

So what's the measured activation at 1 µM for this one? c1cc2c(cc1N1CCCCC1)OCCNC2 [Example 3, dihydrochloride]
94.3

# repeat for c1cc2c(c(-c3ccsc3)c1)OCCNC2 [Example 16, hydrochloride]
99.1

Lookup CCN(CC)c1ccc2c(c1)OCCNC2 [Example 5, dihydrochloride]
91.9

What about this compound? c1cc2c(c(N3CCCC3)c1)OCCNC2 [Example 7, dihydrochloride]
107

Can you handle c1cc2c(c(-c3ccoc3)c1)OCCNC2 [Example 15, hydrochloride] next?
96.2

---

Listing of entries alongside the reported activation at 1 µM.
- Assayed target: serotonin 5-HT2C receptor (Homo sapiens, UniProt P28335, I156V/I160V/N158S)
- Assay overview: cell-based
- Condition: CHO, read-out: ratio to maximum response by 5-HT (1 μM)
Where a name gives a salt, the structure may show the parent alone.
// return numeric value only (unit: %, not printed)

Molecule: Cl.c1cc2c(c(C3CCC3)c1)OCCNC2 [Example 63, hydrochloride]
activation at 1 µM (%): 97.6
--
Molecule: c1cc2c(cc1N1CCCC1)OCCNC2 [Example 2, dihydrochloride]
activation at 1 µM (%): 93.1
--
Molecule: c1ccc(-c2cccc3c2OCCNC3)cc1 [Example 9, hydrochloride]
activation at 1 µM (%): 93.1
--
Molecule: c1cc2c(cc1N1CCOCC1)OCCNC2 [Example 1, hydrochloride]
activation at 1 µM (%): 95.4

Turning now to a further record.
Item c1cc2c(c(C3CCOC3)c1)OCCNC2 (centres unmarked) [Example 55, hydrochloride] with serotonin 5-HT2C receptor (Homo sapiens, UniProt P28335, I156V/I160V/N158S) - activation at 1 µM?
103
